Source: PubChem BioAssay (NCI)

System: IGROV1 ovarian
Assay: NCI tumour cell line growth inhibition, 48 h
Where a SMILES comes first, the peptide text is derived from it.
READOUT LABEL: TGI

1) N#CCN(Cc1ccccc1)[C@@H]1CCC[C@]1(O)C#Cc1ccc2c(c1)OCO2 | 39.7 µM
2) O=C(O)c1cc(=O)c2cc(C(=O)c3cccs3)c(Cl)c(Cl)c2o1 | > 100 µM
3) Cc1ccc(-c2c3c(N)c4c(nc3nc3c2c(C)nn3-c2ccccc2)CCC4)cc1 | 16.2 µM
4) O=c1cc(-c2ccc(O)cc2)oc2cc(O)cc(O)c12 | 80 µM
5) CC(=O)NC(CO)C(=O)NC(Cc1ccc(O)cc1)C(=O)NCC(N)=O (stereo not drawn) (Ac-Ser-Tyr-Gly-NH2; configuration not given here) | > 100 µM

----------
Tested on: SN12C renal
Experiment: NCI tumour cell line growth inhibition, 48 h
*1 amine or outer side, *2 acyl side, *3 side chain or, on linkers, in order; H or OH if unused. Where a SMILES comes first, the peptide text is derived from it. [ ]: non-standard residue; d: D form. The star is where a group is joined. X31 = CC(=O)N(C)SCC(N[*:1])C(=O)[*:2]; Fmoc = O=C(OCC1c2ccccc2-c2ccccc21)*; For = O=C*
READOUT LABEL: TGI

1. COc1ccc(CN=C(N)N=C(N)N)cc1OC | > 1000 µM
2. CCN1C(=O)CS/C1=N\NC(=O)CSc1nc2ccccc2c(=O)n1CC | > 100 µM
3. C=C(CC)C[C@@H]1C[C@]2(C(=O)OC)c3[nH]c4ccccc4c3CCN2C1=O | 41.3 µM
4. COc1ccc(/C=C(\Cl)c2ccc(OC)cc2)cc1 | > 100 µM
5. CC#Cc1c(C#CC)c(OC)c2c(c1OC)C(=O)c1ccccc1C2=O | > 100 µM
6. Nc1ccc(C2=Nc3ccccc3SC(c3ccccc3O)C2)cc1 (centres undefined) | > 100 µM
7. CC(=O)N(C)SCC(NC(=O)C(Cc1ccccc1)NC(=O)OCC1c2ccccc2-c2ccccc21)C(=O)NC(Cc1ccccc1)C(=O)NC(Cc1cn(C=O)c2ccccc12)C(=O)NC(CCCCNC(=O)OCC1c2ccccc2-c2ccccc21)C(=O)NC(C(=O)NC(CSN(C)C(C)=O)C(=O)NC(C(N)=O)C(C)O)C(C)O (centres undefined) (Fmoc-F[X31]FW(For)K(Fmoc)T[X31]T-NH2; configuration not given here) | > 100 µM
8. c1ccc(/C(=N\Nc2ccc3ccccc3n2)c2ccccn2)cc1 | 25.6 µM
9. COc1cccc(C(=O)N[C@@H]2[C@H](O)[C@@H](CO)O[C@H]2n2cnc3c(N)ncnc32)c1 | > 100 µM
10. Cc1ccc(Nc2cn(COCc3ccccc3)c(=O)[nH]c2=O)cc1 | > 100 µM
11. Cc1cccc(N=C2NC(=O)C(CC(=O)Nc3ccccc3Cl)S2)c1 (centres undefined) | > 100 µM
12. c1cc(C[S+]2CCCC2)oc1C[S+]1CCCC1 | > 100 µM
13. COc1ccc(C2C(Cl)C(=O)N2NC(=O)c2ccccc2O)cc1OC (centres undefined) | > 100 µM
14. c1ccc2c(CN3CCC(C4CCN(Cc5cccc6ccccc56)CC4)CC3)cccc2c1 | > 100 µM
15. O=C(Nc1ccc(S(=O)(=O)Nc2ncccn2)cc1)c1c2ccccc2nc2ccccc12 | > 100 µM
16. NCCC1([N+](=O)[O-])CCNCC1 | > 100 µM
17. COC(=O)CNCC1OC2OC(C)(C)OC2C1N=[N+]=[N-] (centres undefined) | > 100 µM
18. COc1ccc(OC)c(/C=N/N=C2\C(=O)Nc3c(Cl)cc(Cl)cc32)c1 | > 100 µM
19. C=CC[C@H]1[C@H](O[Si](C)(C)C(C)(C)C)C=CC(=O)[C@@H]1CC(=O)OCC | 29.9 µM

----------
Tested on: HCT-116 colon
Assay: NCI tumour cell line growth inhibition, 48 h
Each record here notes measured TGI.
READOUT LABEL: TGI

1. O=C(O)CCc1nc2cc3ccccc3cc2[nH]c1=O | > 100 µM
2. C=C(CC)C[C@@H]1C[C@]2(C(=O)OC)c3[nH]c4ccccc4c3CCN2C1=O | 29.6 µM
3. CCOC(=O)/C(=N/Nc1ccc(Cl)cc1)N1C(=S)C=C(C)NN(C)C1=S | > 100 µM
4. COc1ccc(CN=C(N)N=C(N)N)cc1OC | > 1000 µM
5. [O-][n+]1c2cc(CN3CCOCC3)c(CN3CCOCC3)cc2[n+]([O-])c2c(O)cccc21 | 6.05 µM

----------
Tested on: EKVX NSCLC
Assay: NCI tumour cell line growth inhibition, 48 h
READOUT LABEL: TGI

1) Cc1cn2c(/C=C3/C(=O)Nc4ccccc43)c(C)nc2s1 | > 100 µM
2) C/C([O-])=C(/c1nc(-c2ccc([N+](=O)[O-])o2)no1)[n+]1cc(C)ccc1C | > 100 µM
3) COc1cc(-c2oc3c(OC)c(O)cc(O)c3c(=O)c2OC)ccc1O | 72.5 µM
4) COC(=O)C1=C(O)C(C(=O)OC)[C@@]2(O)[C@@H](C(=O)OC)CC[C@@H]1[C@@H]2C(=O)OC (some centres not stated) | 85.7 µM
5) CC(Nc1n[nH]c(=O)c2c1nnn2Cc1ccccc1)c1ccccc1 (configuration not stated) | > 100 µM
6) Cc1ncc(CO)c(C=NCCCCCCN=Cc2c(CO)cnc(C)c2O)c1O | > 100 µM
7) O=C1/C(=C\c2ccccc2)c2ccccc2N1/N=C\c1ccccc1 | > 100 µM
8) Cn1c(=O)sc2cc(C(=S)N3CCN(c4ccccc4)CC3)ccc21 | > 100 µM
9) CC1=C(C(=O)NC(C)(C)C)CC(C(=O)NC(C)(C)C)C(C)N1 (configuration not stated) | > 100 µM
10) COC1C(O)C(C)OC(O[C@@H]2C[C@H]3CC[C@@H]4[C@H](CC[C@]5(C)[C@@H](C6=CC(=O)OC6)CC[C@]45O)[C@@]3(C)[C@H](O)C2)C1O (some centres not stated) | 0.168 µM
11) COC1OC(C(C)O)C2OC(C)(C)OC12 (configuration not stated) | > 100 µM
12) Cc1ccc(Nc2nc(C)c(C(/C=C/c3ccc4c(c3)OCO4)=N/Nc3ccc([N+](=O)[O-])cc3[N+](=O)[O-])s2)c([N+](=O)[O-])c1 | > 100 µM
13) O=C(CC(=O)c1ccccc1)C(=O)NC12CC3CC(CC(C3)C1)C2 | > 100 µM
14) COC(=O)C1=C(c2ccc(Cl)cc2)C(O)N=C(NN)N1 (configuration not stated) | > 100 µM
15) N#CCN(Cc1ccccc1)[C@@H]1CCC[C@]1(O)C#Cc1ccc2c(c1)OCO2 | 55.5 µM
16) COC(=O)CCC1(O)C=CC(=O)C=C1 | > 100 µM
17) COC(=O)c1nc(N)nc(C(=O)OC)c1C(=O)c1ccccc1 | > 100 µM
18) O=C(NN1C(=O)CSC12CCC(c1ccccc1)CC2)c1[nH]c2ccc(F)cc2c1-c1ccccc1 (configuration not stated) | 62 µM
19) CN(C)c1ncnc2c1ccn2C1OC(CO)C(O)C1O (configuration not stated) | > 92.3 µM
20) Cc1cn(Cc2ccccc2CCl)c(=O)n(Cc2ccccc2CCl)c1=O | 5.13 µM
21) COC1C(OC(N)=O)C(O)C(Oc2ccc3c(O)c(NC(=O)c4ccc(O)c(CC=C(C)C)c4)c(=O)oc3c2C)OC1(C)C (configuration not stated) | > 100 µM
22) O=C(O)CCc1nc2cc3ccccc3cc2[nH]c1=O | > 100 µM
23) c1ccc(CSC(SCc2ccccc2)c2ccc3c(c2)OCO3)cc1 | > 10 µM
24) O=C1NC(c2ccccc2)N=C2Oc3ccccc3C=C12 (configuration not stated) | > 100 µM
25) O=C1COCCN1c1ccc(NCc2cn(C(=O)c3ccc(Cl)cc3)c3ccccc23)cc1 | > 100 µM
26) CCOC(=O)NC(=S)NC(C)c1ccccc1 (configuration not stated) | > 100 µM
27) O=C1c2ccccc2C(=O)c2c(O)c(NCCNCCO)cc(O)c21 | 14.4 µM
28) COC(=O)Nc1nc2ccc(S(=O)(=O)c3ccc(NC(=O)Nc4cc(C(F)(F)F)ccc4F)cc3)cc2[nH]1 | > 25 µM
29) COc1cc(C2S/C(=C/c3ccccc3)C(=O)N2c2ccccc2Cl)cc(OC)c1OC (configuration not stated) | 50.8 µM
30) O=c1oc2c(ccc3c(O)cccc32)c2c1CCCC2 | > 100 µM
31) CCN(CC)CCC(=O)O[C@H]1CC[C@H](CC(C)[C@H]2CC(=O)C(C)C=C(C)[C@H](OC(=O)CCN(CC)CC)C(OC)C(=O)[C@@H](C)CC(C)/C=C/C=C/C=C(C)C(OC)CC3CC[C@H](C)[C@](O)(O3)C(=O)C(=O)N3CCCCC3C(=O)O2)CC1OC (some centres not stated) | > 10 µM
32) Cn1nc(C(=O)N2CC(CCl)c3c2cc([N+](=O)[O-])c2ccccc32)cc1NC(=O)Nc1cc(C(=O)N2CC(CCl)c3c2cc([N+](=O)[O-])c2ccccc32)nn1C (configuration not stated) | > 100 µM
